Test system: LEGO organoid PTN (PTEN-/-; TP53-/-; NF1-/-)
Assay: bioluminescence (viable cell) signal fold change after vs before treatment, normalised to DMSO (ratio); higher = more tumour cell growth / less inhibition
Conditions: 10 µM; treatment time 6 days
Kindly state bioluminescence for each of the entries shown.
Respond using a number only.

Name the recorded bioluminescence for C[C@@H]1CCN(C(=O)CC#N)C[C@@H]1N(C)c1ncnc2[nH]ccc12 .
1.19

// lookup bioluminescence for CCC1(C)CC(=O)NC1=O (configuration not stated) [Ethosuximide]
0.778

So what's the measured bioluminescence for this one? CC[C@@H]1/C=C(\C)C[C@H](C)C[C@H](OC)[C@H]2O[C@@](O)(C(=O)C(=O)N3CCCC[C@H]3C(=O)O[C@H](/C(C)=C/[C@@H]3CC[C@H](Cl)[C@H](OC)C3)[C@H](C)[C@@H](O)CC1=O)[C@H](C)C[C@@H]2OC
0.347

# lookup: bioluminescence of Nc1cccc2c1C(=O)N(C1CCC(=O)NC1=O)C2=O (configuration not stated) [Pomalidomide]
1.12

Quick one: bioluminescence of CCn1c(=O)c2c(nc(/C=C/c3ccc(OC)c(OC)c3)n2C)n(CC)c1=O ?
6.31

Name the reported bioluminescence value associated with the molecule Cl.N=C1CCCN1Cc1[nH]c(=O)[nH]c(=O)c1Cl [Tipiracil hydrochloride]
0.848

Which value of bioluminescence has been reported for Cc1nc2n(c(=O)c1CCN1CCC(c3noc4cc(F)ccc34)CC1)CCCC2 in the records?
1.31
